# assay_system: human thyroid receptor beta ligand-binding domain (LBD) (Homo sapiens, UniProt P10828)
# Sequence (P10828 217-461 limits assumed): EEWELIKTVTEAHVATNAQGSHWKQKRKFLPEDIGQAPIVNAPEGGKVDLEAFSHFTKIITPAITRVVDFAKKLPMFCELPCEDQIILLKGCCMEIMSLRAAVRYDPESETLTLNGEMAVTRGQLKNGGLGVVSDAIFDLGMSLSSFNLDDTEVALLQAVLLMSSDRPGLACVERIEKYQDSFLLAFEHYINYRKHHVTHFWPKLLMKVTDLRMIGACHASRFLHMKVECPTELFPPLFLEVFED
# method: TR-FRET thyroid receptor beta coactivator assay (THR biochemical assay, Assay 1)
# measurement_context: THR-beta, TR-FRET coactivator assay; read-out: Activity category Assay 1 (EC50, THR-beta agonist)
pEC50: −log10 of the molar value.
readout_name: pEC50

// fetch human thyroid receptor beta ligand-binding domain (LBD) (Homo sapiens, UniProt P10828) pEC50 for CC(C)c1c[nH]c2ccc(Oc3c(Cl)cc(-n4nc(C#N)c(=O)[nH]c4=O)cc3Cl)cc12
> 7.30

// fetch human thyroid receptor beta ligand-binding domain (LBD) (Homo sapiens, UniProt P10828) pEC50 for Nc1nn(-c2cc(Cl)c(Oc3cc(C4CCOCC4)c(=O)[nH]n3)c(Cl)c2)c(=O)[nH]c1=O
4.60 to 6.00

// fetch human thyroid receptor beta ligand-binding domain (LBD) (Homo sapiens, UniProt P10828) pEC50 for CC1(C)CC(c2cc(Oc3c(Cl)cc(-n4nc(N)c(=O)[nH]c4=O)cc3Cl)n[nH]c2=O)C1
> 7.30

// fetch human thyroid receptor beta ligand-binding domain (LBD) (Homo sapiens, UniProt P10828) pEC50 for Nc1nn(-c2cc(Cl)c(Oc3cc(C4(F)CCCC4)c(=O)[nH]n3)c(Cl)c2)c(=O)[nH]c1=O
6.60 to 7.30

// fetch human thyroid receptor beta ligand-binding domain (LBD) (Homo sapiens, UniProt P10828) pEC50 for Nc1nn(-c2cc(Cl)c(Oc3cc(-c4cnc5ccccc5c4)c(=O)[nH]n3)c(Cl)c2)c(=O)[nH]c1=O
< 4.60

Further cases:
// fetch human thyroid receptor beta ligand-binding domain (LBD) (Homo sapiens, UniProt P10828) pEC50 for Nc1nn(-c2cc(Cl)c(Oc3ccc4c(c3)C3(CC3)C(=O)N4)c(Cl)c2)c(=O)[nH]c1=O
> 7.30

// fetch human thyroid receptor beta ligand-binding domain (LBD) (Homo sapiens, UniProt P10828) pEC50 for CCCc1c[nH]c2ccc(Oc3c(Cl)cc(-n4nc(C#N)c(=O)[nH]c4=O)cc3Cl)nc12
> 7.30

// fetch human thyroid receptor beta ligand-binding domain (LBD) (Homo sapiens, UniProt P10828) pEC50 for Nc1nn(-c2cc(Cl)c(Oc3n[nH]c(=O)cc3-c3ccc4c(c3)CCCO4)c(Cl)c2)c(=O)[nH]c1=O
6.60 to 7.30

// fetch human thyroid receptor beta ligand-binding domain (LBD) (Homo sapiens, UniProt P10828) pEC50 for O=c1cc(-c2ccc3c(c2)CCCC3)c(Oc2c(Cl)cc(-n3ncc(=O)[nH]c3=O)cc2Cl)n[nH]1
> 7.30

// fetch human thyroid receptor beta ligand-binding domain (LBD) (Homo sapiens, UniProt P10828) pEC50 for Cc1cc(-n2nc(C#N)c(=O)[nH]c2=O)cc(C)c1Cc1ccc2c(c1)C1(CCC1)C(=O)N2
> 7.30

// fetch human thyroid receptor beta ligand-binding domain (LBD) (Homo sapiens, UniProt P10828) pEC50 for CC(C)Nc1n[nH]c2ccc(Oc3c(Cl)cc(-n4nc(C#N)c(=O)[nH]c4=O)cc3Cl)cc12
> 7.30

// fetch human thyroid receptor beta ligand-binding domain (LBD) (Homo sapiens, UniProt P10828) pEC50 for Cc1cc(-n2nc(N)c(=O)[nH]c2=O)cc(C)c1Cc1ccc2c(c1)C1(CCCC1)C(=O)N2
> 7.30

// fetch human thyroid receptor beta ligand-binding domain (LBD) (Homo sapiens, UniProt P10828) pEC50 for CC(c1c[nH]c2ccc(Oc3c(Cl)cc(-n4nc(C#N)c(=O)[nH]c4=O)cc3Cl)cc12)C(F)(F)F (centres unmarked)
> 7.30

// fetch human thyroid receptor beta ligand-binding domain (LBD) (Homo sapiens, UniProt P10828) pEC50 for Nc1nn(-c2cc(Cl)c(Oc3cc(C4(c5ccccc5)CC4)c(=O)[nH]n3)c(Cl)c2)c(=O)[nH]c1=O
> 7.30

###

Here, each record is paired with measured EC50 data.
# assay_system: human thyroid receptor beta ligand-binding domain (LBD) (Homo sapiens, UniProt P10828)
# method: TR-FRET thyroid receptor beta coactivator assay (THR biochemical assay, Assay 1)
# measurement_context: THR-beta, TR-FRET coactivator assay; read-out: Activity category Assay 1 (EC50, THR-beta agonist)

For orientation, consider the following solved cases.
Reported EC50, molecule CC(C)c1cc(Oc2c(Cl)cc(-n3nc(N)c(=O)[nH]c3=O)c3c2CC3)n[nH]c1=O : ____
1000 to 25000 nM

Reported EC50, molecule Cc1cc(-n2nc(N)c(=O)[nH]c2=O)cc(C)c1Cc1ccc2[nH]c(=O)n(C(C)C)c2c1 : ____
< 50 nM

Reported EC50, molecule CC(c1ccccc1)c1c[nH]c2ccc(Oc3c(Cl)cc(-n4nc(C#N)c(=O)[nH]c4=O)cc3Cl)cc12 (stereo not drawn) : ____
> 25000 nM

Further cases:
Reported EC50, molecule Nc1nn(-c2cc(Cl)c(Oc3n[nH]c(=O)cc3-c3ccc4ccccc4c3)c(Cl)c2)c(=O)[nH]c1=O : ____
< 50 nM

Reported EC50, molecule CC(c1ccccc1)c1cc(Oc2c(Cl)cc(-n3nc(N)c(=O)[nH]c3=O)cc2Cl)n[nH]c1=O (single isomer, unassigned) [Compound 164] : ____
< 50 nM

Reported EC50, molecule N#Cc1nn(-c2cc(Cl)c(Oc3ccc4[nH]cc(Cc5ccccc5)c4c3)c(Cl)c2)c(=O)[nH]c1=O : ____
< 50 nM

###

Here, each record is paired with measured EC50 data.
# assay_system: human thyroid receptor alpha ligand-binding domain (LBD) (Homo sapiens, UniProt P10827)
# method: TR-FRET thyroid receptor alpha coactivator assay (THR biochemical assay, Assay 1)
# measurement_context: Table 4, THR-alpha, read-out: Activity category Assay 1 (EC50, THR-alpha agonist activity)

For orientation, consider the following solved cases.
Reported EC50, compound Nc1nn(-c2cc(Cl)c(Oc3cc(C4CC5(CC5)C4)c(=O)[nH]n3)c(Cl)c2)c(=O)[nH]c1=O : ____
250 to 1000 nM

Reported EC50, compound CC(c1cc(Oc2c(Cl)cc(-n3nc(N)c(=O)[nH]c3=O)cc2Cl)n[nH]c1=O)C1CC(F)(F)C1 (single isomer, unassigned) [Compound 61-A] : ____
50 to 250 nM

Reported EC50, compound Nc1nn(-c2cc(Cl)c(Oc3cc(-c4ccc5c(c4)CCCC5)c(=O)[nH]n3)c(Cl)c2)c(=O)[nH]c1=O : ____
> 25000 nM

Further cases:
Reported EC50, compound C[C@@H](c1cc(Oc2c(Cl)cc(-n3nc(N)c(=O)[nH]c3=O)cc2Cl)n[nH]c1=O)C1CCC1 : ____
1000 to 25000 nM

Reported EC50, compound O=c1cc(-c2ccc3sccc3c2)c(Oc2c(Cl)cc(-n3ncc(=O)[nH]c3=O)cc2Cl)n[nH]1 : ____
1000 to 25000 nM

###

Here, each record is paired with measured EC50 data.
# assay_system: THR alpha (Homo sapiens)
# Construct: expressed in transfected cells; host or cells: HEK293T (ATCC CRL-3216)
# Sequence (P10827 1-410 isoform P10827-2): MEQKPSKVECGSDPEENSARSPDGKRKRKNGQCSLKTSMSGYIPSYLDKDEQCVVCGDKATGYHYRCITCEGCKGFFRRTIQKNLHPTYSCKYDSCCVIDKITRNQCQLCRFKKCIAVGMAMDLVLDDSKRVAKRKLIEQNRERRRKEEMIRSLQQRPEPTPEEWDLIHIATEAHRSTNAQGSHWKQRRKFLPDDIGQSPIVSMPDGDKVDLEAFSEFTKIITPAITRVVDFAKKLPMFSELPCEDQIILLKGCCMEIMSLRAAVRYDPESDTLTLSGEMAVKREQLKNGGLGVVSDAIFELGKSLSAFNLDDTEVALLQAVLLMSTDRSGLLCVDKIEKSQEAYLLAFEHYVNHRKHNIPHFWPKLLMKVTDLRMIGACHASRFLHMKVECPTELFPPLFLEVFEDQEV
# Sequence (P19793 1-462 partner): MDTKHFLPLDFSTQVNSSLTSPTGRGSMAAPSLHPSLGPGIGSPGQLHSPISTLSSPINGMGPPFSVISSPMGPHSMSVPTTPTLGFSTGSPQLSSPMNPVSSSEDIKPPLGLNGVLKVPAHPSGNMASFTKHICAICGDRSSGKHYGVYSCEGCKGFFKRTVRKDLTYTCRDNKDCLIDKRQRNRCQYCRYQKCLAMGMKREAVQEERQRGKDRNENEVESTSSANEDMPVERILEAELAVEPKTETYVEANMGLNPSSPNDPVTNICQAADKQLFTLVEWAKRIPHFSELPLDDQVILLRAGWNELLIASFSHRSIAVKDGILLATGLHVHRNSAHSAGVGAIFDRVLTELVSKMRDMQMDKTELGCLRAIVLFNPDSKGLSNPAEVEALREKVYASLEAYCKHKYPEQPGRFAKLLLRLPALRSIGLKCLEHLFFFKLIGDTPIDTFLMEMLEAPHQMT
# method: HEK293T THR alpha/RXR luciferase reporter assay (Assay 2)
# Assay type: cell-based
# measurement_context: Table 4; THR-alpha; Assay 2; read-out: Activity category Assay 2 (EC50, THR-alpha agonist activity)

Reported EC50, compound Nc1nn(-c2cc(Cl)c(Oc3n[nH]c(=O)cc3-c3cc4ccccc4cn3)c(Cl)c2)c(=O)[nH]c1=O : ____
> 10000 nM

Reported EC50, compound CC(C)Nc1n[nH]c2ccc(Oc3c(Cl)cc(-n4nc(C#N)c(=O)[nH]c4=O)cc3Cl)cc12 : ____
1000 to 10000 nM

Further cases:
Reported EC50, compound O=c1cnn(-c2cc(Cl)c(Oc3cc(-c4ccc5ccccc5c4)c(=O)[nH]n3)c(Cl)c2)c(=O)[nH]1 : ____
> 10000 nM
